Molecular target: Purine nucleoside phosphorylase (Plasmodium falciparum)
Sequence (Q8T9Z7 whole entry): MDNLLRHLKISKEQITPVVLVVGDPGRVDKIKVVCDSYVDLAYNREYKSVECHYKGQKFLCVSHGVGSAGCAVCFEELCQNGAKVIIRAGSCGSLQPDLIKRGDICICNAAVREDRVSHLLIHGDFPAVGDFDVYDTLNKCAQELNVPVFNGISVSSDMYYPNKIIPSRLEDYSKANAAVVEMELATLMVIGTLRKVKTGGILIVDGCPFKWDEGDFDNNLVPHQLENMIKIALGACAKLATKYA
# Lookup of reported pKi keyed by entry
Recall that pKi is obtained by taking minus log10 of the concentration measured in molar.

>>> obs_value("O=c1[nH]cnc2c(CN3C[C@H](CO)[C@@H](O)C3)c[nH]c12")
9.30

Query :: Return reported pKi; argument: O=c1[nH]cnc2c(CN3[C@@H](CO)C[C@@H]3CO)c[nH]c12 (racemic)
Result :: 6.24
